System: KRAS G12V in SW620
Assay: pERK inhibition assay, SW620
Format: cell-based, human
Conditions: Homo sapiens, SW-620, SW620 cells, 4 hours incubation
pIC50: −log10 of the molar value.
Binary call on pIC50: True from 7 upward, False beneath that.

Consider the worked cases shown below.
CCn1c(-c2cccnc2COC)c2c3cc(ccc31)-c1cc(O)cc(c1)C[C@H](NC(=O)[C@H](C(C)C)N(C)C(=O)C1CN(C(=O)[C@H](F)Cl)C1)C(=O)N1CCC[C@H](N1)C(=O)OCC(C)(C)C2 [RM461-A] : False
CCn1c(-c2cc(N3CCN(C)CC3)cnc2[C@H](C)OC)c2c3cc(ccc31)-c1csc(n1)C[C@H](NC(=O)[C@H](C(C)C)N1CCCC3(CCN(C(=O)[C@H](F)Cl)C3)C1=O)C(=O)N1CCC[C@H](N1)C(=O)OCC(C)(C)C2 (some centres unmarked) [Example 18] : True
CO[C@@H](C)c1ncc(N2CCN(C)CC2)cc1-c1c2c3cc(ccc3n1CC(F)(F)F)-c1csc(n1)C[C@H](NC(=O)[C@H](C(C)C)N(C)C(=O)C1(F)CCN(C(=O)[C@H](F)Cl)CC1)C(=O)N1CCC[C@H](N1)C(=O)OCC(C)(C)C2 (atropisomer, axis not shown; (M)) [Example 20] : True

Prompt: Is reported pIC50 greater than or equal to 7 here: CCn1c(-c2cccnc2[C@H](C)OC)c2c3cc(ccc31)-c1cc(O)cc(c1)C[C@H](NC(=O)[C@H](C(C)C)N(C)C(=O)[C@H]1CCN(C(=O)C(F)Cl)C1)C(=O)N1CCC[C@H](N1)C(=O)OCC(C)(C)C2 (some centres unmarked) [Example 2]
Completion: True

Prompt: For this molecule, is measured pIC50 7 or higher? CCn1c(-c2cccnc2[C@H](C)OC)c2c3cc(ccc31)-c1cc(O)cc(c1)C[C@H](NC(=O)[C@H](C(C)C)N(C)C(=O)C1CC(C=O)C1)C(=O)N1CCC[C@H](N1)C(=O)OCC(C)(C)C2 (some centres unmarked) [Example 3]
Completion: False

Prompt: Test whether the molecule CCn1c(-c2cccnc2[C@H](C)OC)c2c3cc(ccc31)-c1cc(O)cc(c1)C[C@H](NC(=O)[C@H](C(C)C)N(C)C(=O)[C@H]1CCN(C(=O)C(C)=O)C1)C(=O)N1CCC[C@H](N1)C(=O)OCC(C)(C)C2 (atropisomer, axis not shown; (M)) [Example 5] records pIC50 of 7 or higher.
Completion: True

Prompt: Check this molecule for pIC50 at or above 7: CCn1c(-c2cc(N3CCN(C)CC3)cnc2[C@H](C)OC)c2c3cc(ccc31)-c1csc(n1)C[C@H](NC(=O)[C@H](C(C)C)N(C)C(=O)[C@H]1CCN(C(=O)[C@H](F)Cl)C1)C(=O)N1CCCC(N1)C(=O)OCC(C)(C)C2 (some centres unmarked) [Example 10]
Completion: True

Prompt: pIC50 >= 7 for CC(C)[C@@H](C(=O)N[C@H]1Cc2cc(O)cc(c2)-c2ccc3c(C(C)(C)C#N)cn(c3c2)CC(C)(C)COC(=O)[C@@H]2CCCN(N2)C1=O)N1CCCC2(CCN(C(=O)CCl)C2)C1=O (some centres unmarked) [RM351, reference compound] ?
Completion: False

Prompt: Could you tell me if the measured pIC50 of CO[C@@H](C)c1ncc(N2CCN(C)CC2)cc1-c1c2c3cc(ccc3n1CC(F)(F)F)-c1csc(n1)C[C@H](NC(=O)[C@H](C(C)C)N1CC[C@]3(CCN(C(=O)[C@H](F)Cl)C3)C1=O)C(=O)N1CCC[C@H](N1)C(=O)OCC(C)(C)C2 [Example 23] reaches 7 or more?
Completion: True

Prompt: Can CCn1c(-c2cc(N3CCN(C)CC3)cnc2[C@H](C)OC)c2c3cc(ccc31)-c1cc(O)cc(c1)C[C@H](NC(=O)[C@H](C(C)C)N(C)C(=O)[C@H]1CCN(C(=O)[C@H](F)Cl)C1)C(=O)N1CCC[C@H](N1)C(=O)OCC(C)(C)C2 (atropisomer, axis not shown; (M)) [Example 12] be said to have pIC50 at or above 7?
Completion: True

Prompt: Check this molecule for pIC50 at or above 7: CO[C@@H](C)c1ncc(N2CCN(C)CC2)cc1-c1c2c3cc(ccc3n1CC(F)(F)F)-c1csc(n1)C[C@H](NC(=O)[C@H](C(C)C)N(C)C(=O)[C@H]1CCN(C(=O)[C@H](F)Cl)C1)C(=O)N1CCC[C@H](N1)C(=O)OCC(C)(C)C2 (atropisomer, axis not shown; (M)) [Example 21]
Completion: True

Prompt: Entry CCn1c(-c2cccnc2[C@H](C)OC)c2c3cc(ccc31)-c1cc(O)cc(c1)C[C@H](NC(=O)[C@H](C(C)C)N(C)C(=O)C1CC(C#Cc3ccccn3)C1)C(=O)N1CCC[C@H](N1)C(=O)OCC(C)(C)C2 (some centres unmarked) [Example 13] : is its pIC50 no less than 7?
Completion: False

Prompt: Hi, just wondering whether C#CC1CC(C(=O)N(C)[C@H](C(=O)N[C@H]2Cc3cc(O)cc(c3)-c3ccc4c(c3)c(c(-c3cccnc3[C@H](C)OC)n4CC)CC(C)(C)COC(=O)[C@@H]3CCCN(N3)C2=O)C(C)C)C1 (some centres unmarked) [Example 4] shows pIC50 of 7 or higher.
Completion: True

Prompt: Please check the record CO[C@@H](C)c1ncc(N2CCOCC2)cc1-c1c2c3cc(ccc3n1CC(F)(F)F)-c1csc(n1)C[C@H](NC(=O)[C@H](C(C)C)N(C)C(=O)[C@H]1CCN(C(=O)[C@H](F)Cl)C1)C(=O)N1CCC[C@H](N1)C(=O)OCC(C)(C)C2 (atropisomer, axis not shown; (M)) [Example 25] and state if its pIC50 is at or above 7.
Completion: True

Prompt: Confirm if pIC50 reported for the molecule CCn1c(-c2cccnc2[C@H](C)OC)c2c3cc(ccc31)-c1cc(O)cc(c1)C[C@H](NC(=O)[C@H](C(C)C)N(C)C(=O)C1CCN(C(=O)C#CCN3CCOCC3)C1)C(=O)N1CCC[C@H](N1)C(=O)OCC(C)(C)C2 (some centres unmarked) [RM018, reference compound] is 7 or above.
Completion: False
